# Assay Info: Spectroscopic properties of the target conjugates in PBS
# Assay type: physicochemical
Answer each item with its documented λmax (absorption maximum).
Please respond with the number in nm and leave the unit unwritten.

Prompt: Entry CC(OC(=O)Cc1ccccc1)c1c2ccc(=[N+]3CCCC3)cc-2oc2cc(N3CCCC3)ccc12.[I-] (centres unmarked) : reported λmax (absorption maximum) = ?
Response: 570

Prompt: Proceed to CC(OCc1ccccc1)C1=C2C=CC(=[N+]3CCCC3)C=C2C(C)(C)c2cc(N3CCCC3)ccc21.[I-] (centres unmarked)
Response: 635

Prompt: Proceed to CC(OC(=O)Cc1ccccc1)c1c2ccc(=O)cc-2oc2cc(N3CCCC3)ccc12 (centres unmarked)
Response: 538

Prompt: Proceed to CC[N+]1=c2cc3c(cc2C(C)CC1(C)C)=C(C(C)OC(=O)Cc1ccccc1)c1cc2c4c(c1C3(C)C)CCCN4CCC2 (centres unmarked)
Response: 660

Prompt: Proceed to CC(OC(=O)Cc1ccccc1)C1=C2C=CC(=[N+]3CCCC3)C=C2C(C)(C)c2cc(N3CCCC3)ccc21.[I-] (centres unmarked)
Response: 641

Prompt: Proceed to CCc1c2c(nc3ccc(OC(=O)N(C)CCN(C)C(=O)OC(C)c4c5ccc(=[N+]6CCCC6)cc-5oc5cc(N6CCCC6)ccc45)cc13)-c1cc3c(c(=O)n1C2)COC(=O)C3(O)CC.[I-] (mixture of isomers)
Response: 575

Prompt: Proceed to CC(OC(=O)Oc1ccccc1)C1=C2C=CC(=[N+]3CCCC3)C=C2C(C)(C)c2cc(N3CCCC3)ccc21.[I-] (centres unmarked)
Response: 643

Prompt: Proceed to CC(OC(=O)N1CCN(c2ccccc2)CC1)C1=C2C=CC(=[N+]3CCCC3)C=C2C(C)(C)c2cc(N3CCCC3)ccc21 (centres unmarked)
Response: 637

Numbers sourced from patent US20260055118A1.
